System: L1210 leukemia ip in BDF1 mice, survival T/C
Measurement notes: NCI In Vivo Anticancer Drug Screen. Data for tumor model L1210 Leukemia (intraperitoneal) in B6D2F1 (BDF1) mice
Measurement conditions: endpoint: mean survival time; dose: 200.0 mg/kg/injection; schedule: Q01DX001 (ip); vehicle: saline; higher = longer survival
Inconclusive results and toxic doses are left out.
Would you kindly list T/C for each of these molecules?

Fill in the recorded T/C for this molecule, with L1210 leukemia ip in BDF1 mice, survival T/C as test system: CN(C=O)c1cc([N+](=O)[O-])ccc1OCc1ccccc1
92 % of control

Fill in the recorded T/C for this molecule, with L1210 leukemia ip in BDF1 mice, survival T/C as test system: O=C(O)CNC(=S)Nc1ccc(S(=O)(=O)c2ccc(NC(=S)NCC(=O)O)cc2)cc1
102 % of control

Fill in the recorded T/C for this molecule, with L1210 leukemia ip in BDF1 mice, survival T/C as test system: CCCCCCOC(=O)Nc1ccc(S(=O)(=O)N(CCC)CCC)cc1
95 % of control

Fill in the recorded T/C for this molecule, with L1210 leukemia ip in BDF1 mice, survival T/C as test system: C/C(=N/NC(N)=O)C1CC2CCC1C2 (configuration not stated)
101 % of control

Fill in the recorded T/C for this molecule, with L1210 leukemia ip in BDF1 mice, survival T/C as test system: CC(=O)N1Cc2c(N)ncnc2C1C (configuration not stated)
108 % of control

Fill in the recorded T/C for this molecule, with L1210 leukemia ip in BDF1 mice, survival T/C as test system: c1cnc(N2CCCCC2)cn1
96 % of control

Fill in the recorded T/C for this molecule, with L1210 leukemia ip in BDF1 mice, survival T/C as test system: CCCCC#CCl
94 % of control

Fill in the recorded T/C for this molecule, with L1210 leukemia ip in BDF1 mice, survival T/C as test system: Brc1ccc(S/C=C/c2ccccc2)cc1
102 % of control

Fill in the recorded T/C for this molecule, with L1210 leukemia ip in BDF1 mice, survival T/C as test system: CS(=O)(=O)n1c(CCl)nc2ccccc21
102 % of control

Fill in the recorded T/C for this molecule, with L1210 leukemia ip in BDF1 mice, survival T/C as test system: Cc1ccnc(NS(=O)(=O)c2ccc(N=Nc3c(N)nc(N)nc3N)cc2)n1
97 % of control

Fill in the recorded T/C for this molecule, with L1210 leukemia ip in BDF1 mice, survival T/C as test system: CC(=O)c1cccc(OC(=O)c2ccccc2)c1
104 % of control

Fill in the recorded T/C for this molecule, with L1210 leukemia ip in BDF1 mice, survival T/C as test system: COc1ccc(C2=NC(=O)C(C(=O)c3ccccc3)O2)cc1 (configuration not stated)
96 % of control

Fill in the recorded T/C for this molecule, with L1210 leukemia ip in BDF1 mice, survival T/C as test system: CCOC(=O)COc1ccc(N2C(N)=NC(N)=NC2(C)C)cc1
102 % of control

Fill in the recorded T/C for this molecule, with L1210 leukemia ip in BDF1 mice, survival T/C as test system: CCc1ccccc1N1CCN(C(=O)c2cc(OC)c(OC)c(OC)c2)CC1
103 % of control

Fill in the recorded T/C for this molecule, with L1210 leukemia ip in BDF1 mice, survival T/C as test system: CN1CC(=O)N=C1N
103 % of control

Fill in the recorded T/C for this molecule, with L1210 leukemia ip in BDF1 mice, survival T/C as test system: O=C(Nc1ccccc1)Nc1nccs1
106 % of control

Fill in the recorded T/C for this molecule, with L1210 leukemia ip in BDF1 mice, survival T/C as test system: COc1ccc(CN2CCCN(Cc3ccc(OC)cc3OC)C2c2cccnc2)c(OC)c1
103 % of control

Fill in the recorded T/C for this molecule, with L1210 leukemia ip in BDF1 mice, survival T/C as test system: C(/CCC/C=N/Nc1ccccc1)=N\Nc1ccccc1
109 % of control

Fill in the recorded T/C for this molecule, with L1210 leukemia ip in BDF1 mice, survival T/C as test system: CN1CCN(C(CO)Cc2ccccc2)CC1 (configuration not stated)
104 % of control

Fill in the recorded T/C for this molecule, with L1210 leukemia ip in BDF1 mice, survival T/C as test system: C/C=C/C=C/CC
102 % of control

Fill in the recorded T/C for this molecule, with L1210 leukemia ip in BDF1 mice, survival T/C as test system: COc1ccc(OC)c2c(=O)cc(C)[nH]c12
92 % of control

Fill in the recorded T/C for this molecule, with L1210 leukemia ip in BDF1 mice, survival T/C as test system: CC(C)CNC(=O)Nc1ccc(Cl)c(Cl)c1
95 % of control

Fill in the recorded T/C for this molecule, with L1210 leukemia ip in BDF1 mice, survival T/C as test system: O=C(OCCCl)c1ccco1
102 % of control

Fill in the recorded T/C for this molecule, with L1210 leukemia ip in BDF1 mice, survival T/C as test system: O=C(Nc1cccc(S(=O)(=O)F)c1)c1ccc([N+](=O)[O-])cc1
103 % of control

Fill in the recorded T/C for this molecule, with L1210 leukemia ip in BDF1 mice, survival T/C as test system: NCC(=O)Nc1ccc(S(=O)(=O)c2ccc(NC(=O)CN)cc2)cc1
101 % of control

Fill in the recorded T/C for this molecule, with L1210 leukemia ip in BDF1 mice, survival T/C as test system: CCCCCCCC/C=C\CCCCCCCCOCC(O)CO (configuration not stated)
91 % of control

Fill in the recorded T/C for this molecule, with L1210 leukemia ip in BDF1 mice, survival T/C as test system: CN(C)CC(O)c1ccc2oc3ccccc3c2c1 (configuration not stated)
97 % of control

Fill in the recorded T/C for this molecule, with L1210 leukemia ip in BDF1 mice, survival T/C as test system: CCCCN(C)C(=S)S[Te](SC(=S)N(C)CCCC)(SC(=S)N(C)CCCC)SC(=S)N(C)CCCC
90 % of control

Fill in the recorded T/C for this molecule, with L1210 leukemia ip in BDF1 mice, survival T/C as test system: CC1([N+](=O)[O-])COP(=O)(OCCc2ccccc2)OC1 (configuration not stated)
93 % of control

Fill in the recorded T/C for this molecule, with L1210 leukemia ip in BDF1 mice, survival T/C as test system: O=C(O)CCC(=O)Nc1ccccc1CC(c1c[nH]c2ccccc12)c1c[nH]c2ccccc12
106 % of control

Fill in the recorded T/C for this molecule, with L1210 leukemia ip in BDF1 mice, survival T/C as test system: COc1cc2c(cc1OC)C(Cc1cc(OC)c(OC)cc1[N+](=O)[O-])=NCC2
98 % of control

Fill in the recorded T/C for this molecule, with L1210 leukemia ip in BDF1 mice, survival T/C as test system: CC(C)(Cl)C(N)=O
103 % of control

Fill in the recorded T/C for this molecule, with L1210 leukemia ip in BDF1 mice, survival T/C as test system: Cc1ccc(/C=C2\CCC3C(=O)CCCC3C2=O)cc1 (configuration not stated)
89 % of control

Fill in the recorded T/C for this molecule, with L1210 leukemia ip in BDF1 mice, survival T/C as test system: Oc1ccc(-c2nc3ccccc3nc2-c2ccc(O)cc2O)c(O)c1
93 % of control

Fill in the recorded T/C for this molecule, with L1210 leukemia ip in BDF1 mice, survival T/C as test system: CC[n+]1ccc(-c2ccc(S(=O)(=O)[O-])cc2)o1
105 % of control

Fill in the recorded T/C for this molecule, with L1210 leukemia ip in BDF1 mice, survival T/C as test system: c1ccc2c(c1)ccn1cnnc21
109 % of control

Fill in the recorded T/C for this molecule, with L1210 leukemia ip in BDF1 mice, survival T/C as test system: NNc1ccc(CC(=O)O)cc1
93 % of control

Fill in the recorded T/C for this molecule, with L1210 leukemia ip in BDF1 mice, survival T/C as test system: COc1cccc(CC(C(=O)c2ccc(O)cc2)c2ccccc2)c1 (configuration not stated)
97 % of control

Fill in the recorded T/C for this molecule, with L1210 leukemia ip in BDF1 mice, survival T/C as test system: CC1CCOS(=O)O1 (configuration not stated)
104 % of control

Fill in the recorded T/C for this molecule, with L1210 leukemia ip in BDF1 mice, survival T/C as test system: CCCC[Si](Cl)(CCCC)CCCC
108 % of control

Fill in the recorded T/C for this molecule, with L1210 leukemia ip in BDF1 mice, survival T/C as test system: Nc1ccc(CCCNc2c(N)nc(N)nc2-c2ccccc2)cc1
94 % of control

Fill in the recorded T/C for this molecule, with L1210 leukemia ip in BDF1 mice, survival T/C as test system: CCC(OC(=O)Nc1ccc(S(=O)(=O)NC2CCCCC2)cc1)c1ccco1 (configuration not stated)
88 % of control

Fill in the recorded T/C for this molecule, with L1210 leukemia ip in BDF1 mice, survival T/C as test system: COc1nc2c(=O)[nH]cnc2n1C1OC(CO)C(O)C1O (configuration not stated)
100 % of control

Fill in the recorded T/C for this molecule, with L1210 leukemia ip in BDF1 mice, survival T/C as test system: CC(=O)Nc1cccc(-c2ccccc2Cl)c1
96 % of control

Fill in the recorded T/C for this molecule, with L1210 leukemia ip in BDF1 mice, survival T/C as test system: O=C(CCCC(=O)NNC(=O)Nc1ccc(Cl)cc1)NNC(=O)Nc1ccc(Cl)cc1
100 % of control

Fill in the recorded T/C for this molecule, with L1210 leukemia ip in BDF1 mice, survival T/C as test system: NC12C3(Cl)C4(Cl)C5(OCCO5)C5(Cl)C3(Cl)C1(Cl)C5(Cl)C24Cl (configuration not stated)
90 % of control

Fill in the recorded T/C for this molecule, with L1210 leukemia ip in BDF1 mice, survival T/C as test system: CCCc1cc(CN2CCOCC2)c(O)c(CN2CCOCC2)c1O
93 % of control

Fill in the recorded T/C for this molecule, with L1210 leukemia ip in BDF1 mice, survival T/C as test system: CCCCCCCCP(=O)(N1CC1CC)N1CC1CC (configuration not stated)
101 % of control

Fill in the recorded T/C for this molecule, with L1210 leukemia ip in BDF1 mice, survival T/C as test system: O=[N+]([O-])c1ccc(N=Cc2ccccc2)c(O)c1
98 % of control

Fill in the recorded T/C for this molecule, with L1210 leukemia ip in BDF1 mice, survival T/C as test system: Cc1ccc(C)c(NS(C)(=O)=O)c1
102 % of control

Fill in the recorded T/C for this molecule, with L1210 leukemia ip in BDF1 mice, survival T/C as test system: CCCCCCCC[As](=O)(O)CCCCCCCC
98 % of control

Fill in the recorded T/C for this molecule, with L1210 leukemia ip in BDF1 mice, survival T/C as test system: Cc1cc(C)c2c(C#N)cn(-c3cccc([N+](=O)[O-])c3)c2n1
87 % of control

Just for reference, PubChem BioAssay AID248 is where these values come from.
